Reported pEC50 values for the following molecules.
# TARGET_OR_TEST_SYSTEM: Probable G-protein coupled receptor 142 (Homo sapiens)
# Sequence (Q7Z601 whole entry): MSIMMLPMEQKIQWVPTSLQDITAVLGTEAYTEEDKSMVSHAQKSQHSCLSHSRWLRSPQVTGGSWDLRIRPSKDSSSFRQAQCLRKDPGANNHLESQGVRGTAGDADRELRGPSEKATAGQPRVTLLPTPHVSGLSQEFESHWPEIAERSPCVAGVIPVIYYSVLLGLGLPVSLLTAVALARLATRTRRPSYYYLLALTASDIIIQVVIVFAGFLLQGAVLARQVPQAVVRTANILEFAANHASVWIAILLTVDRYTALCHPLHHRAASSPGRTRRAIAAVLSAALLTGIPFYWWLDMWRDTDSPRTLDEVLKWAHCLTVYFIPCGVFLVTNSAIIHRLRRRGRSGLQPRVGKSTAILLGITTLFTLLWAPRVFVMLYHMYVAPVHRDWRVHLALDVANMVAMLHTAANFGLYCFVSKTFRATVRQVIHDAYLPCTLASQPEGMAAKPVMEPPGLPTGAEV
# EXPERIMENT_NOTES: Agonist activity at human GPR142 expressed in HEK293 cells assessed as inositol phosphate accumulation after 1 hr by scintillation counting
Would you please state pEC50, meaning minus log10 of the concentration in mol/L, as a bare number?

Below, 2 molecules whose answers are already recorded.
MOLECULE: O=C(O)Cn1cc(-c2ccncc2)cc(NC(=O)[C@H](Cc2ccccc2)NC2(c3ccccn3)CC2)c1=O
TARGET_OR_TEST_SYSTEM: Probable G-protein coupled receptor 142 (Homo sapiens)
pEC50: 6.59

MOLECULE: O=C(Nc1cc(-c2ccncc2)c[nH]c1=O)[C@H](Cc1ccccc1)NCc1cscn1
TARGET_OR_TEST_SYSTEM: Probable G-protein coupled receptor 142 (Homo sapiens)
pEC50: 6.03

Task item: Record lookup: for Probable G-protein coupled receptor 142 (Homo sapiens), what pEC50 belongs to O=C(Nc1cc(-c2ccncc2)c[nH]c1=O)[C@H](Cc1ccccc1)NC1(c2ncccn2)CC1 ?
Reply: 7.00

Task item: Record lookup: for Probable G-protein coupled receptor 142 (Homo sapiens), what pEC50 belongs to CCC(N[C@@H](Cc1ccccc1)C(=O)Nc1cc(-c2ccncc2)c[nH]c1=O)c1ccccn1 (mixture of isomers) ?
Reply: 6.14

Task item: Record lookup: for Probable G-protein coupled receptor 142 (Homo sapiens), what pEC50 belongs to C[C@@H](N[C@@H](Cc1ccccc1)C(=O)Nc1cc(-c2ccncc2)c[nH]c1=O)c1ccccn1 ?
Reply: 5.22

Task item: Record lookup: for Probable G-protein coupled receptor 142 (Homo sapiens), what pEC50 belongs to CNc1cc(-c2nnc(NC(=O)[C@H](Cc3ccccc3)NCc3cscn3)s2)ccn1 ?
Reply: 7.44

Task item: Record lookup: for Probable G-protein coupled receptor 142 (Homo sapiens), what pEC50 belongs to COc1ncc(-c2ccncc2)cc1NC(=O)[C@H](Cc1ccccc1)NC1(c2ccccn2)CC1 ?
Reply: 6.46

Task item: Record lookup: for Probable G-protein coupled receptor 142 (Homo sapiens), what pEC50 belongs to CN(C)CCn1cc(-c2ccncc2)cc(NC(=O)[C@H](Cc2ccccc2)NC2(c3ccccn3)CC2)c1=O ?
Reply: 6.55

Task item: Record lookup: for Probable G-protein coupled receptor 142 (Homo sapiens), what pEC50 belongs to Cc1nc(C2(N[C@@H](Cc3ccccc3)C(=O)Nc3cc(-c4ccncc4)c[nH]c3=O)CC2)cs1 ?
Reply: 6.70

Task item: Record lookup: for Probable G-protein coupled receptor 142 (Homo sapiens), what pEC50 belongs to O=C(Nc1cc(-c2ccncc2)c[nH]c1=O)[C@H](Cc1ccccc1)NCc1ncccn1 ?
Reply: 6.36

Task item: Record lookup: for Probable G-protein coupled receptor 142 (Homo sapiens), what pEC50 belongs to O=C(Nc1cc(-c2ccncc2)c[nH]c1=O)[C@H](Cc1ccccc1)NCC1CCS(=O)(=O)CC1 ?
Reply: 4.70

Attribution: ChEMBL document CHEMBL2163318
